Tested on: OVCAR-4 ovarian
Experiment: NCI tumour cell line growth inhibition, 48 h
Reported TGI values for the following molecules.

These recorded examples may help you get a feel for the data.
molecule	test-system	TGI
CC1=CC(=O)NP(=O)(C23CC4CC(CC(C4)C2)C3)N1 (stereo not given)	OVCAR-4 ovarian	> 100 µM
Cn1cc(C2=C(c3cn(CCCCC(=N)N)c4ccccc34)C(=O)NC2=O)c2ccccc21	OVCAR-4 ovarian	> 25 µM
Cc1ccc(S(=O)(=O)NC(CO)C(=O)O)cc1 (stereo not given)	OVCAR-4 ovarian	> 100 µM

stdin: So what's the measured TGI for this one? COC(=O)/C(=N\Nc1nnc(C)n1N)C(C#N)c1ccccc1 (stereo not given)
stdout: > 67.4 µM

stdin: Which TGI value belongs to `O=S(=O)(O)c1ccc2c(N=Nc3ccc(Sc4ccc(N=Nc5c(O)ccc6cc(S(=O)(=O)O)ccc56)cc4)cc3)c(O)ccc2c1` ?
stdout: > 100 µM

###

Tested on: M14 melanoma
Assay: NCI tumour cell line growth inhibition, 48 h
experimental-readout: TGI

Record excerpt, results attached:
molecule	TGI
CCOC(=O)CCC(NC(=O)c1ccc(Nc2nc3ccccc3nc2C(=O)OCC)cc1)C(=O)OCC (stereo not drawn)	> 100 µM
Cc1c(Cl)cccc1NC(=O)c1sc2nc3c(cc2c1N)CCCC3	> 100 µM

stdin: Form field: reported TGI of `O=S(=O)(O)c1ccc2c(N=Nc3ccc(Sc4ccc(N=Nc5c(O)ccc6cc(S(=O)(=O)O)ccc56)cc4)cc3)c(O)ccc2c1`
stdout: > 100 µM

###

Tested on: MDA-MB-231 breast
Experiment: NCI tumour cell line growth inhibition, 48 h
experimental-readout: TGI

Here are 4 compounds together with their reported answers.
compound	test-system	TGI
CC(=O)NC1C(OCc2ccccc2)OC(CO)C(O)C1OCC(=O)N[C@@H](C)C(=O)N[C@H](CCC(=O)NCCCNc1ccc([N+](=O)[O-])c2[nH]c3ccccc3c(=O)c12)C(N)=O (stereo not given in full)	MDA-MB-231 breast	> 100 µM
N#Cc1nc(/C=C/c2cccnc2)oc1N	MDA-MB-231 breast	> 100 µM
CSCCCNC(=O)[C@H](CSC)NC(=O)c1csc(CCNC(=O)[C@@H](NSc2ccccc2[N+](=O)[O-])C(C)O)n1 (stereo not given in full)	MDA-MB-231 breast	> 100 µM
C=C(C)[C@@H]1CC[C@]2(C(=O)NC(C)=O)CC[C@]3(C)[C@H](CC[C@@H]4[C@@]5(C)CCCNC(C)(C)[C@@H]5CC[C@]43C)[C@@H]12	MDA-MB-231 breast	3.29 µM

stdin: Fill in the recorded TGI for this compound, with MDA-MB-231 breast as test system: `N#Cc1nc(-c2cccc(-c3nc(C#N)c(N)o3)n2)oc1N`
stdout: > 100 µM

###

Test system: HS 578T breast
Test: NCI tumour cell line growth inhibition, 48 h
experimental-readout: GI50

O=C(Nc1cccc(C(F)(F)F)c1)c1cc2ccccc2cc1O 1.89 µM
COc1ccc2c(c1)/C(=N/OC(C)=O)c1c-2cnc2ccccc12 39.8 µM

Next, consider the following compound.
stdin: Find the measured GI50: item `NC(=O)c1ccc(N(C(N)=O)c2c(F)cccc2F)nc1-c1ccc(F)cc1F` , target or system HS 578T breast.
stdout: > 100 µM

###

System: SK-OV-3 ovarian
Assay: NCI tumour cell line growth inhibition, 48 h
experimental-readout: TGI

Known results for molecules:
molecule	TGI
[CH3][Sn]1([CH3])[O]CC(COc2cc(Cl)c(Cl)cc2Cl)[O]1 (stereo unspecified)	> 100 µM
O=c1[nH]nc(-c2ccccc2)n1-n1cnnc1	> 100 µM

stdin: Given the molecule `Cn1cc(C2=C(c3cn(CCCCC(=N)N)c4ccccc34)C(=O)NC2=O)c2ccccc21` , what is its reported TGI?
stdout: > 25 µM

stdin: Could you share which TGI value was measured for `Cc1ccc2c(c1C)C(=O)/C(=C/c1cccc(C)c1C(=O)O)C2` ?
stdout: > 100 µM

stdin: Suppose we examine the molecule `Cc1ccc(S[C@@H](C)[C@@](O)(C(N)=O)c2ccccc2)cc1` ; what TGI value has been reported?
stdout: > 100 µM

stdin: Which TGI value belongs to `CN(C(=O)CNC(=O)/C=C/c1cccc(Cl)c1)C1CCS(=O)(=O)CC1` ?
stdout: > 100 µM

stdin: I am curious: what TGI value has been reported for `CCNC(=S)N/N=C(\C)c1cccc(C)n1` ?
stdout: > 100 µM

stdin: Can you look up the measured TGI of `C(#Cc1ccccc1)SC1=C(c2ccccc2)S/C(=C(\SC#Cc2ccccc2)c2ccccc2)S1` for me?
stdout: > 100 µM

stdin: Requested field: TGI. Item: `CN1CCC2(CC1)C(=NC1CCCCC1)NC(=O)N2c1ccccc1`
stdout: > 100 µM

stdin: Would you mind telling me what TGI value was observed for `O=C(/C=C/C1C(=O)NC(=O)NC1=O)CC(=O)C(=O)Nc1cc(Cl)c(Cl)cc1Cl` ?
stdout: > 100 µM

stdin: Entry under review: `CCCN1CCC=C(c2ccc(Nc3nc(Nc4ccccc4C(N)=O)c4cc[nH]c4n3)c(C)c2)C1` . Reported TGI?
stdout: > 25 µM

###

Tested on: OVCAR-3 ovarian
Assay: NCI tumour cell line growth inhibition, 48 h
experimental-readout: GI50

Observe how each entry below is paired with its result.
molecule	GI50
CCN(CC)Cc1cc(Nc2c3ccccc3nc3cc(Cl)ccc23)ccc1O	1.74 µM
C=C(C)[C@@H]1CC[C@]2(CO)CC[C@]3(C)[C@H](CC[C@@H]4[C@@]5(C)CC[C@H](NCO)C(C)(C)[C@@H]5CC[C@]43C)[C@@H]12	0.88 µM
O=C(/C=C/c1ccc([N+](=O)[O-])cc1)c1cccc(Nc2nc(Nc3ccccc3)nc(Nc3ccccc3)n2)c1	11.3 µM

Note: attention shifts to another entry.
stdin: Tell me the measured GI50 of `CCCCCCCCCCSC(=N)N` , please.
stdout: 3.71 µM

###

Items are presented alongside their recorded TGI.
System: NCI-H460 lung
Assay: NCI tumour cell line growth inhibition, 48 h

molecule	TGI
CC/C(=C\c1ccc(OC)cc1)c1ccc(OC)cc1	> 100 µM
CN1CCC2(CC1)C(=NC1CCCCC1)NC(=O)N2c1ccccc1	> 100 µM
COc1cccc(NC2=C(Cl)C(=O)N(Cc3ccc(Cl)cc3)C2=O)c1	18.5 µM
CCCCC[C@H]1CCCCCCCCCC(=O)OC2C(O[C@@H]3OC(C)[C@H](OC(=O)[C@@H](C)CC)C(O[C@@H]4OC(C)[C@H](O)C(O)[C@@H]4O)[C@@H]3OC(=O)[C@H](C)CC)[C@H](OC3C(O)[C@@H](O)C(C)O[C@H]3O1)OC(CO)[C@H]2O (stereo partly specified)	32.5 µM
Cc1cc2ccc(N)nc2[nH]c1=O	> 100 µM

stdin: GET /values?readout=TGI&item= `O=C(Nc1ccc(Cl)cc1)c1cc(S(=O)(=O)Nc2n[nH]c(=O)n2-c2ccccc2)c(S)cc1Cl`
stdout: > 100 µM

stdin: Which TGI value belongs to `N#C/C(=C\c1ccc2[nH]ccc2c1)C(=O)c1ccc(O)c(O)c1` ?
stdout: > 100 µM

stdin: Looking for the measured TGI of COc1ccc(C)cc1C1CCC(=O)O1 (stereo unspecified) , can you help?
stdout: > 100 µM

stdin: Entry CCOC(=O)CC(NC(=O)c1ccc(N=NN(C)C)cc1)C(=O)OCC (stereo unspecified) : reported TGI = ?
stdout: > 100 µM

stdin: Could you share which TGI value was measured for `O=C(/C=C/c1ccco1)c1ccc(Nc2nc(Nc3ccc(F)cc3)nc(Nc3ccc(F)cc3)n2)cc1` ?
stdout: 59 µM

stdin: May I ask what TGI has been recorded for `CCCCCCCCCCCCO[P+](=O)OCCCCCCCCCCCC` ?
stdout: > 100 µM

###

Tested on: NCI-H522 lung
Assay: NCI tumour cell line growth inhibition, 48 h
experimental-readout: TGI

Past entries and their recorded results:
compound	TGI
CC1=CC(=O)NP(=O)(C23CC4CC(CC(C4)C2)C3)N1 (stereo unspecified)	> 100 µM
O=P(O)(O)CN1CCNCCN(CP(=O)(O)O)CC1	> 100 µM
O=S(=O)(O)c1ccc2c(N=Nc3ccc(Sc4ccc(N=Nc5c(O)ccc6cc(S(=O)(=O)O)ccc56)cc4)cc3)c(O)ccc2c1	> 100 µM

Attention now turns to another entry.
stdin: Entry `O=C(NOCCO)c1cc(CN2OCCCC2=O)c(F)c(F)c1Nc1ccc(I)cc1F` has what TGI?
stdout: > 65.4 µM

###

System: 786-0 renal
Assay: NCI tumour cell line growth inhibition, 48 h
Measured TGI, listed per entry.

molecule	TGI
COC1CC(OC2C(C)OC(OC3C(C)OC(OC4C(C)OC(O[C@H]5CC[C@@]6(C)C(=CC[C@]7(O)[C@@H]6C[C@@H](O)[C@@]6(C)[C@]7(O)CC[C@@]6(O)C(C)=O)C5)CC4OC)CC3OC)CC2OC)OC(C)C1O (some centres undefined)	> 12.5 µM
COc1cc2ccc3ccncc3c2cc1OC	> 10 µM
C=CCNC(=S)/N=C/C(C(=O)Nc1ccccc1C)=C(\C)O	> 100 µM
CN1CCC2(CC1)C(=NC1CCCCC1)NC(=O)N2c1ccccc1	> 100 µM
CC1(C)CC(=O)C2=C(C1)OC1(CC2c2ccc(Cl)cc2)CC(c2ccc(Cl)cc2)C2=C(CC(C)(C)CC2=O)O1 (centres undefined)	35.9 µM

stdin: Which TGI reading was recorded for the molecule `COC(=O)c1cc(/C=C\c2cc(OC)ccc2OC)ccc1OC` ?
stdout: > 100 µM

stdin: Which value of TGI has been reported for `S=c1c2ccccc2c(=S)n2n1CC=CC2` in the records?
stdout: > 100 µM

stdin: Data request, read-out TGI, for `Cc1c2ccncc2c(C)c2c1[nH]c1ccc(Cl)cc12`
stdout: 2.27 µM
